measurement.target: Cytochrome P450 3A4 (Homo sapiens, UniProt P08684)
Sequence (P08684 whole entry): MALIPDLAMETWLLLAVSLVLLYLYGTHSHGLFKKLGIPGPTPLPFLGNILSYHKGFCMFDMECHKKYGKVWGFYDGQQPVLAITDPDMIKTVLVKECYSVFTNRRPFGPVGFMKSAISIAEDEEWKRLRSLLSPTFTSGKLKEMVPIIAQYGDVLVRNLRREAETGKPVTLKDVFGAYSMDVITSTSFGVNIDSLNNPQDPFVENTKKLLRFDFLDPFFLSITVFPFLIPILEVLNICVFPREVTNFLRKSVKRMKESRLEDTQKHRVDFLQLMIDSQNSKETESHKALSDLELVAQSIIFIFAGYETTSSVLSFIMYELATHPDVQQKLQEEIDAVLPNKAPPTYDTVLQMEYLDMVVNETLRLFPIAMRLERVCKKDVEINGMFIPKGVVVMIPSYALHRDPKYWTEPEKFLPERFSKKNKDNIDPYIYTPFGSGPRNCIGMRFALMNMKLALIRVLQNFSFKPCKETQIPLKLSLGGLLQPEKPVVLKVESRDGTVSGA
measured.metric: IC50

Let me check: Cn1cc(-c2cc3cnc(Nc4ccc(-c5cncn5C)cc4Cl)cc3n2C(=O)OC(C)(C)C)cn1 , system Cytochrome P450 3A4 (Homo sapiens, UniProt P08684), measured IC50 is < 1000 nM

====

experimental.protocol: Plasma protein binding in Sprague-Dawley rat at 5 mg/kg, iv or po after 24 hrs by ESI-LCMS/MS analysis
Assay type: ADME, organism-based
test.settings: read-out: PPB (converted)
measured.metric: fraction unbound at 24 h

Summary for this molecule, COc1cc(-c2cnn(C)c2)ccc1Nc1ncc2ccnc(N[C@@H](C)C(C)(C)C)c2n1 : fraction unbound at 24 h is 0.0003
